All figures here come from patent US7964727B2.

Structures can show the parent of a compound that is named as a salt.
Consider the following molecules; for each one, report its melting point.
Numbers only, in °C.

Solved entries:
Reported melting point of "CC(C)n1c(=O)c(C(=O)NCC2CCN(CC3(O)CCOCC3)CC2)cc2c(Cl)cccc21" : 227

Reported melting point of "Cc1cccc2c1cc(C(=O)NCC1CCN(CC3(O)CCOCC3)CC1)c(=O)n2C(C)C" : 222

Reported melting point of Cc1cccc2c1cc(C(=O)NCC1CCN(CC3CCNCC3)CC1)c(=O)n2C(C)C (as salt: hydrochloride) : 240.7

Now for another entry.
Reported melting point of CC(C)n1c(=O)c(C(=O)NCC2CCN(CC3(O)CCOCC3)CC2)cc2c(F)cccc21 (as salt: hydrochloride) : 275.7
